Target: T1, In house human CD8A-Fc (human, UniProt P01732 22-182, limits assumed)
T1 construct: Captured on goat anti-human Fc on a ProteOn GLC chip; also called hCD8A-Fc; recombinant human CD8 alpha; not shown: linker with flag (and polyhistidine) tag and Fc of human IgG1
T1 sequence (P01732 22-182 limits assumed): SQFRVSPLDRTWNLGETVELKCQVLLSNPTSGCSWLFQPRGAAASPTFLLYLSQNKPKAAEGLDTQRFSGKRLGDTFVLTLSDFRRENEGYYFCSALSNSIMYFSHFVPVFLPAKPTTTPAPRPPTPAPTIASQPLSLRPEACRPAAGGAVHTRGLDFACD
Assay: SPR (ProteOn), captured hCD8A-Fc
attribute-measured: koff

Reference set (3 entries):
binder	koff
P282ER9P1360_C6 (designed binder, FN3 domain) LSAPKNLVVSRVTEDSARLSWTAPDAAFDSFGILYYEPVDSGEAITLPIPGSERSYDLTGLKPGTEYWVVITGVKGGAPSTPLGAIFTT	0.000175 s⁻¹
P282DR9P1359_E8 (designed binder, FN3 domain) LPAPKNLVVSRVTEDSARLSWTAPDAAFDSFQIAYPEWPVIGEAIVLTVPGSERSYDLTGLKPGTEYWVIIQGVKGGYTSWPLSAIFTT	0.00119 s⁻¹
P282AR9P1356_H6 (designed binder, FN3 domain) LPAPKNLVVSRVTEDSARLSWRKRANSFDSFLIQYQESEKVGEAIVLTVPGSERSYDLTGLKPGTEYTVSIYGVHVEYDQHGRPRWSNPLSAIFTT	8.08e-05 s⁻¹

Problem: What value of koff has been recorded for this entry: P282BR9P1357_G9 (designed binder, FN3 domain) LPAPKNLVVSRVTEDSARLSWPIASQIHSPFDSFLIQYQESEKVGEAIVLTVPGSERSYDLTGLKPGTEYTVSIYGVDVKYDIDSRPISSNPLSAIFTT
Solution: 0.000304 s⁻¹
